Reference for the values: PubChem BioAssay AID1963834

test system: 873145-292-R-J1-PDC complex spheroid viability; assay: Anticancer human tumor 873145-292-R-J1-PDC patient-derived renal clear cell carcinoma cell line growth inhibition [POLQ]; conditions: second compound 3.16 µM; first compound 0.0316 µM; active compounds read low;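 further: luminescence signal used as surrogate for viable cell content; spheroids exposed to compounds for 7 days before viability readout; 100% = DMSO vehicle control viability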
ATTRIBUTE_MEASURED: viability, T/C (%)

compound="CCc1c2c(nc3ccc(O)cc13)-c1cc3c(c(=O)n1C2)COC(=O)[C@]3(O)CC + COC1C(OC(N)=O)C(O)C(Oc2ccc3c(O)c(NC(=O)c4ccc(O)c(CC=C(C)C)c4)c(=O)oc3c2C)OC1(C)C" measured_on="873145-292-R-J1-PDC complex spheroid viability" unit_symbol=% reported_result=57
compound="C=CCn1c(=O)c2cnc(Nc3ccc(N4CCN(C)CC4)cc3)nc2n1-c1cccc(C(C)(C)O)n1 + Nc1ccc(C#CCN(C(=O)Cc2ncc(C(F)(F)F)cc2C(F)(F)F)c2ccc(F)cc2)nn1" measured_on="873145-292-R-J1-PDC complex spheroid viability" unit_symbol=% reported_result=88.4
compound="CNCc1ccc(-c2[nH]c3cc(F)cc4c3c2CCNC4=O)cc1 + COC1C(OC(N)=O)C(O)C(Oc2ccc3c(O)c(NC(=O)c4ccc(O)c(CC=C(C)C)c4)c(=O)oc3c2C)OC1(C)C" measured_on="873145-292-R-J1-PDC complex spheroid viability" unit_symbol=% reported_result=99.5
compound="COc1ccc([C@@H](O)c2cc(-c3ncnc4cc(N5CCOCC5)ccc34)c(F)cc2Cl)nn1 + Cc1cccc(N(C)C(=O)C2C(O)CCN2c2nc(C)cc(C(F)(F)F)c2C#N)c1" measured_on="873145-292-R-J1-PDC complex spheroid viability" unit_symbol=% reported_result=93.5
compound="Nc1ccn(C2OC(CO)C(O)C2(F)F)c(=O)n1 (stereo not drawn) + Cc1cccc(N(C)C(=O)C2C(O)CCN2c2nc(C)cc(C(F)(F)F)c2C#N)c1" measured_on="873145-292-R-J1-PDC complex spheroid viability" unit_symbol=% reported_result=72.3
compound="COc1cc(C2c3cc4c(cc3C(OC3OC5COC(C)OC5C(O)C3O)C3COC(=O)C23)OCO4)cc(OC)c1O (stereo not drawn) + Cc1cccc(N(C)C(=O)C2C(O)CCN2c2nc(C)cc(C(F)(F)F)c2C#N)c1" measured_on="873145-292-R-J1-PDC complex spheroid viability" unit_symbol=% reported_result=98.9
compound="CC(C)n1c(=O)n(C)c2cnc3cc(F)c(-c4ccc(OCCCN5CCCCC5)nc4)cc3c21 + Cc1cccc(N(C)C(=O)C2C(O)CCN2c2nc(C)cc(C(F)(F)F)c2C#N)c1" measured_on="873145-292-R-J1-PDC complex spheroid viability" unit_symbol=% reported_result=91
compound="O=c1[nH]cc(F)c(=O)[nH]1 + Cc1cccc(N(C)C(=O)C2C(O)CCN2c2nc(C)cc(C(F)(F)F)c2C#N)c1" measured_on="873145-292-R-J1-PDC complex spheroid viability" unit_symbol=% reported_result=93.5
compound="C#Cc1c(F)ccc2cc(O)cc(-c3ncc4c(N5CC6CCC(C5)N6)nc(OCC56CCCN5CC(F)C6)nc4c3F)c12 (stereo not drawn) + Nc1ccc(C#CCN(C(=O)Cc2ncc(C(F)(F)F)cc2C(F)(F)F)c2ccc(F)cc2)nn1" measured_on="873145-292-R-J1-PDC complex spheroid viability" unit_symbol=% reported_result=106
compound="CC[C@@]1(O)C(=O)OCc2c1cc1n(c2=O)Cc2cc3c(CN(C)C)c(O)ccc3nc2-1 + COC1C(OC(N)=O)C(O)C(Oc2ccc3c(O)c(NC(=O)c4ccc(O)c(CC=C(C)C)c4)c(=O)oc3c2C)OC1(C)C" measured_on="873145-292-R-J1-PDC complex spheroid viability" unit_symbol=% reported_result=75.1
compound="COc1ccc([C@@H](O)c2cc(-c3ncnc4cc(N5CCOCC5)ccc34)c(F)cc2Cl)nn1 + Nc1ccc(C#CCN(C(=O)Cc2ncc(C(F)(F)F)cc2C(F)(F)F)c2ccc(F)cc2)nn1" measured_on="873145-292-R-J1-PDC complex spheroid viability" unit_symbol=% reported_result=99.5
compound="C=CC(=O)N1CCN(c2nc(=O)n(-c3c(C)ccnc3C(C)C)c3nc(-c4c(O)cccc4F)c(F)cc23)C(C)C1 (stereo not drawn) + Cc1cccc(N(C)C(=O)C2C(O)CCN2c2nc(C)cc(C(F)(F)F)c2C#N)c1" measured_on="873145-292-R-J1-PDC complex spheroid viability" unit_symbol=% reported_result=105
compound="CC(C)n1c(=O)n(C)c2cnc3cc(F)c(-c4ccc(OCCCN5CCCCC5)nc4)cc3c21 + Nc1ccc(C#CCN(C(=O)Cc2ncc(C(F)(F)F)cc2C(F)(F)F)c2ccc(F)cc2)nn1" measured_on="873145-292-R-J1-PDC complex spheroid viability" unit_symbol=% reported_result=99.8
